Origin of measurements: patent US8815829B2

# Test system: PBM cells
# settings: human, 4 h, 50 μM
measured_endpoint: nucleotides detected (LC/MS)

INSERT INTO assay_data (compound, value_observed) VALUES
  ('[N-]=[N+]=N[C@H]1C[C@H](n2cnc3c(Cl)nc(N)nc32)O[C@@H]1CO', 'detection of RFS-457-TP'),
  ('C=CCN(C)c1nc(N)nc2c1ncn2[C@H]1CC(N=[N+]=[N-])[C@@H](CO)O1 (stereo partly drawn)', 'detection of RFS-457-TP');

---

# Test system: HIV-1/LAI
# protocol_details: Anti-HIV-1 assay in PBM cells
# Format: cell-based
# settings: Human immunodeficiency virus 1, PBMC, PBM cells; read-out: HIV-1/LAI (PBM) EC90
API: label(entry) gives t if the entry's EC90 is strictly smaller than 2 µM; on equality or larger values it gives f.

Take the molecule CC(C)(CO)Nc1nc(N)nc2c1ncn2[C@H]1CC(N=[N+]=[N-])[C@@H](CO)O1 (some centres unmarked) and say whether its EC90 is less than 2 µM.
f

Determine if C=CCN(C)c1nc(N)nc2c1ncn2[C@H]1CC(N=[N+]=[N-])[C@@H](CO)O1 (some centres unmarked) shows EC90 strictly lower than 2 µM.
t

In plain terms, does CN(C)c1nc(N)nc2c1ncn2[C@H]1CC(N=[N+]=[N-])[C@@H](CO)O1 (some centres unmarked) come in under 2 µM for EC90?
t

Is 2 µM strictly greater than the molecule's reported EC90? molecule: [N-]=[N+]=NC1C[C@H](n2cnc3c(NC4CC4)nc(N)nc32)O[C@@H]1CO (some centres unmarked)
f

Decide: EC90 of C=CCNc1nc(N)nc2c1ncn2[C@H]1CC(N=[N+]=[N-])[C@@H](CO)O1 (some centres unmarked) strictly below 2 µM?
f

API: query returns whether the molecule falls strictly under 2 µM in EC90. Query: Cc1cn([C@H]2C[C@H](N=[N+]=[N-])[C@@H](CO)O2)c(=O)[nH]c1=O [AZT, 3′-azido-3′-deoxythymidine, reference compound]
t

Quick check: does COCCNc1nc(N)nc2c1ncn2[C@H]1CC(N=[N+]=[N-])[C@@H](CO)O1 (some centres unmarked) have EC90 under 2 µM?
f

Quick check: does CC(CO)Nc1nc(N)nc2c1ncn2[C@H]1CC(N=[N+]=[N-])[C@@H](CO)O1 (some centres unmarked) have EC90 under 2 µM?
f

---

For each record, write down the corresponding IC50.
# Test system: CEM cells
# protocol_details: Cytotoxicity assay in CEM cells
# Format: cell-based, human
# settings: Tables 2-4; read-out: CEM IC50
Give the quantity in µM, number only.

Please look up its IC50: CCOC(=O)[C@H](C)NP(=O)(OC[C@H]1O[C@@H](n2cnc3c(N)nc(N)nc32)CC1N=[N+]=[N-])Oc1ccccc1 (some centres unmarked) [RS-788]
30.4

# lookup: IC50 of CCOC(=O)[C@H](C)NP(=O)(OC[C@H]1O[C@@H](n2cnc3c(N)nc(N)nc32)CC1N=[N+]=[N-])Oc1ccccc1 (some centres unmarked) [RS-783]
12.1
